Catalogue of IC50 readings, one per entry.
molecular target: PD-1/PD-L1 (Homo sapiens, UniProt Q9NZQ7); construct: made in house; host or cells: HEK293T; assay: PD-1/PD-L1 Homogenous Time-Resolved Fluorescence (HTRF) binding assay; details: PD-L1-His 10 nM, PD-1-Ig 20 nM; value given as range class; read-out: Range or IC50
Sequence (Q9NZQ7 with tags, fused parts or gaps): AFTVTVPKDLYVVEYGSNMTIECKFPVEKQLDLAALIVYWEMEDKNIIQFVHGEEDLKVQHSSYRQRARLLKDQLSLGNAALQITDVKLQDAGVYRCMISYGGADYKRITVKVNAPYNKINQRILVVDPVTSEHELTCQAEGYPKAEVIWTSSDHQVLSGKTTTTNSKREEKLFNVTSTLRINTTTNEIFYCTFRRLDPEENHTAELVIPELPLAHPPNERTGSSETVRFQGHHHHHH

• Cc1c(COc2cc(OCc3cncc(C#N)c3)c(CO)cc2Cl)cccc1-c1cc(OCCCN2CC[C@@H](O)C2)cc(OCCCN2CC[C@@H](O)C2)c1 = 2010 to 10000 nM
• CCOC(=O)C1(CO)CCN(CCCOc2cccc(-c3cccc(COc4cc(OCc5cncc(C#N)c5)c(CN5CCC(CO)(C(=O)OCC)C5)cc4Cl)c3C)c2Cl)C1 (stereo not shown) = 10 to 100 nM
• Cc1c(COc2cc(OCc3cncc(C#N)c3)c(CNCCCN(C)C)cc2Cl)cccc1-c1cccc(CNCCCN(C)C)c1 = 100 to 2000 nM
• Cc1ccc(OCCCN2CC[C@@H](O)C2)c(C)c1-c1cccc(COc2cc(OCc3cncc(C#N)c3)c(CN[C@@H](CO)C(=O)O)cc2Cl)c1C = 0.21 to 10 nM
• CNC(=O)C1CCN(CCCOc2cccc(-c3cccc(COc4cc(OCc5cncc(C#N)c5)c(CN5CCCC[C@H]5C(=O)O)cc4Cl)c3C)c2Cl)CC1 = 0.21 to 10 nM

Note to self: IC50 recorded for Cc1c(COc2cc(OCc3cncc(C#N)c3)c(CNC(CO)(CO)CO)cc2Cl)cccc1-c1cccc(OCCCN2CC[C@@H](O)C2)c1C was 0.21 to 10 nM

Note to self: IC50 recorded for Cc1c(COc2cc(OCc3cncc(C#N)c3)c(CNC(C)(CO)CO)cc2Cl)cccc1-c1cccc(OCCCNC(=O)Cc2ccccn2)c1Cl was 0.21 to 10 nM
